- protocol-summary: Acid stability in 2% TFA, LCMS
- test-parameters: 3 mM stock diluted 6-times to 2% TFA-NanoPure water
reported-endpoint: % remaining after 1 h at 40° C. in 2% TFA (%)
Enter your answer as a number in %; do not include the unit.

[[record]]
compound = "CCCCCCCCCCCCC1OCC(COC(=O)NCCCS(=O)(=O)[O-])O1.[Na+] (centres unmarked)"
readout_number = 4

[[record]]
compound = "CCCCCCC1(CCCCCC)OCC(COC(=O)NCC(O)CS(=O)(=O)[O-])O1.[Na+] (centres unmarked)"
readout_number = 100

[[record]]
compound = "CC(COC(=O)NCCCS(=O)(=O)[O-])(OCCC(F)(F)C(F)(F)C(F)(F)C(F)(F)F)OCCC(F)(F)C(F)(F)C(F)(F)C(F)(F)F.[Na+]"
readout_number = 0

[[record]]
compound = "CCCCCCCCCCCC1OCC(COC(=O)NCCCS(=O)(=O)[O-])O1.[Na+] (centres unmarked)"
readout_number = 1


The record that follows has no % remaining after 1 h at 40° C. in 2% TFA shown yet.
Name the recorded % remaining after 1 h at 40° C. in 2% TFA for CCCCCC1(CCCCC)OCC(COC(=O)NCCCS(=O)(=O)[O-])O1.[Na+] (centres unmarked) .
0

---

- protocol-summary: Thermal stability, LCMS (% remaining at 95° C. for 1 h)
- test-parameters: 20 mM DMSO stock diluted 100-times into Tris-based PCR buffer
reported-endpoint: % remaining after 1 hour at 95° C. in Polymerase Buffer C (%)
Enter your answer as a number in %; do not include the unit.

# example entries with known answers
[[record]]
compound = "CCCCCCCC1(CCCCCCC)OCC(COC(=O)NCC(O)CS(=O)(=O)[O-])O1.[Na+] (stereo not shown)"
readout_number = 81.2

[[record]]
compound = "CCCCCOC(C)(COC(=O)NCC(O)CS(=O)(=O)[O-])OCCCCC.[Na+] (stereo not shown)"
readout_number = 13.1

[[record]]
compound = "CCCCCC1(CCCCC)OCC(COC(=O)NCCCS(=O)(=O)[O-])O1.[Na+] (stereo not shown)"
readout_number = 99.4


The record that follows has no % remaining after 1 hour at 95° C. in Polymerase Buffer C shown yet.
Name the recorded % remaining after 1 hour at 95° C. in Polymerase Buffer C for CCCCCCCCCCCC1(C)OCC(COC(=O)NCCCS(=O)(=O)[O-])O1.[Na+] (stereo not shown) .
95.0

---

The compounds listed here are annotated with their % remaining after 1 hour at 95° C. in Polymerase Buffer C.
- protocol-summary: Thermal stability, LCMS (% remaining at 95° C. for 1 h)
- test-parameters: 20 mM DMSO stock diluted 100-times into Tris-based PCR buffer
Enter your answer as a number in %; do not include the unit.

# example entries with known answers
[[record]]
compound = "CCCCCOC(C)(COC(=O)NCCCS(=O)(=O)[O-])OCCCCC.[Na+]"
readout_number = 5.4

[[record]]
compound = "CCCCCCCCCCC1OCC(COC(=O)NCC(O)CS(=O)(=O)[O-])O1.[Na+] (stereo not shown)"
readout_number = 94.1

[[record]]
compound = "CC(COC(=O)NCC(O)CS(=O)(=O)[O-])(OCCC(F)(F)C(F)(F)C(F)(F)C(F)(F)C(F)(F)C(F)(F)F)OCCC(F)(F)C(F)(F)C(F)(F)C(F)(F)C(F)(F)C(F)(F)F.[Na+] (stereo not shown)"
readout_number = 93.4

[[record]]
compound = "CCCCCOC(C)(COC(=O)Nc1ccc(N(CCCS(=O)(=O)[O-])CCCS(=O)(=O)[O-])cc1)OCCCCC.[Na+].[Na+]"
readout_number = 2.5


Name the recorded % remaining after 1 hour at 95° C. in Polymerase Buffer C for CCCCCCCCCCC1OCC(COC(=O)NCCCS(=O)(=O)[O-])O1.[Na+] (stereo not shown) .
95.2

And what about the compound CCCCCCCCCCCC1(C)OCC(COC(=O)Nc2ccc(N(CCCS(=O)(=O)[O-])CCCS(=O)(=O)[O-])cc2)O1.[Na+].[Na+] (stereo not shown) ?
93.6

And what about the compound CCCCCCCCCCC1(C)OCC(COC(=O)NCCCS(=O)(=O)[O-])O1.[Na+] (stereo not shown) ?
89.3

---

- protocol-summary: Acid stability in 2% TFA, LCMS
- test-parameters: 3 mM stock diluted 6-times to 2% TFA-NanoPure water
reported-endpoint: % remaining after 1 h at 40° C. in 2% TFA

[[record]]
molecule = "CCCCCCCCCCCC1(C)OCC(COC(=O)NCCCS(=O)(=O)[O-])O1.[Na+] (centres unmarked)"
result = "0%"

[[record]]
molecule = "CCCCCOC(C)(COC(=O)Nc1ccc(N(CCCS(=O)(=O)[O-])CCCS(=O)(=O)[O-])cc1)OCCCCC.[Na+].[Na+]"
result = "42%"

[[record]]
molecule = "CCCCCCCCCCC1(C)OCC(COC(=O)NCCCS(=O)(=O)[O-])O1.[Na+] (centres unmarked)"
result = "0%"

[[record]]
molecule = "CCCCCCCCCCCC1OCC(COC(=O)NCC(O)CS(=O)(=O)[O-])O1.[Na+] (centres unmarked)"
result = "Not soluble"


Name the recorded % remaining after 1 h at 40° C. in 2% TFA for CCCCCC1(CCCCC)OCC(COC(=O)NCC(O)CS(=O)(=O)[O-])O1.[Na+] (centres unmarked) .
0%

And what about the molecule CCCCCCCCCCC1OCC(COC(=O)NCCCS(=O)(=O)[O-])O1.[Na+] (centres unmarked) ?
1%

And what about the molecule CCCCCCCC1(CCCCCCC)OCC(COC(=O)NCC(O)CS(=O)(=O)[O-])O1.[Na+] (centres unmarked) ?
Not soluble

And what about the molecule CCCCCCCCCCCC1(C)OCC(COC(=O)Nc2ccc(N(CCCS(=O)(=O)[O-])CCCS(=O)(=O)[O-])cc2)O1.[Na+].[Na+] (centres unmarked) ?
0%

---

The compounds listed here are annotated with their % remaining after 1 hour at 95° C. in Polymerase Buffer C.
- protocol-summary: Thermal stability, LCMS (% remaining at 95° C. for 1 h)
- test-parameters: 20 mM DMSO stock diluted 100-times into Tris-based PCR buffer
Enter your answer as a number in %; do not include the unit.

# example entries with known answers
[[record]]
compound = "CCCCCCCCCCCC1OCC(COC(=O)NCC(O)CS(=O)(=O)[O-])O1.[Na+] (centres unmarked) [HW-0805]"
readout_number = 94.2

[[record]]
compound = "CCCCCCC1(CCCCCC)OCC(COC(=O)NCC(O)CS(=O)(=O)[O-])O1.[Na+] (centres unmarked) [JZ-0179]"
readout_number = 83.9


Name the recorded % remaining after 1 hour at 95° C. in Polymerase Buffer C for CCCCCCCC1(CCCCCCC)OCC(COC(=O)NCCCS(=O)(=O)[O-])O1.[Na+] (centres unmarked) [RBK-0170] .
88.3

And what about the compound CCCCCCOC(C)(COC(=O)NCCCS(=O)(=O)[O-])OCCCCCC.[Na+] [RBK-0169] ?
6.0

And what about the compound CCCCCCOC(C)(COC(=O)NCC(O)CS(=O)(=O)[O-])OCCCCCC.[Na+] (centres unmarked) [RBK-0172] ?
8.2

And what about the compound CCCCCCCCCCCCC1OCC(COC(=O)NCCCS(=O)(=O)[O-])O1.[Na+] (centres unmarked) [JRW-1574] ?
92.8

---

- protocol-summary: Thermal stability, LCMS (% remaining at 95° C. for 1 h)
- test-parameters: 20 mM DMSO stock diluted 100-times into Tris-based PCR buffer
reported-endpoint: % remaining after 1 hour at 95° C. in Polymerase Buffer C (%)
Enter your answer as a number in %; do not include the unit.

[[record]]
compound = "CCCCCCCCCCCC1OCC(COC(=O)NCCCS(=O)(=O)[O-])O1.[Na+] (stereo not shown)"
readout_number = 95.7

[[record]]
compound = "CCCCCC1(CCCCC)OCC(COC(=O)NCC(O)CS(=O)(=O)[O-])O1.[Na+] (stereo not shown)"
readout_number = 93.8

[[record]]
compound = "CC(COC(=O)NCC(O)CS(=O)(=O)[O-])(OCCC(F)(F)C(F)(F)C(F)(F)C(F)(F)F)OCCC(F)(F)C(F)(F)C(F)(F)C(F)(F)F.[Na+] (stereo not shown)"
readout_number = 90.5

[[record]]
compound = "CCCCCCC1(CCCCCC)OCC(COC(=O)NCCCS(=O)(=O)[O-])O1.[Na+] (stereo not shown)"
readout_number = 102.9


Name the recorded % remaining after 1 hour at 95° C. in Polymerase Buffer C for CCCCCCCCCCCC1(C)OCC(COC(=O)NCC(O)CS(=O)(=O)[O-])O1.[Na+] (stereo not shown) .
83.6

---

- protocol-summary: Acid stability in 2% TFA, LCMS
- test-parameters: 3 mM stock diluted 6-times to 2% TFA-NanoPure water
reported-endpoint: % remaining after 1 h at 40° C. in 2% TFA

[[record]]
molecule = "CCCCCCCCCCCC1(C)OCC(COC(=O)NCC(O)CS(=O)(=O)[O-])O1.[Na+] (stereo not drawn)"
result = "Not soluble"

[[record]]
molecule = "CCCCCCCCCCCCC1OCC(COC(=O)NCC(O)CS(=O)(=O)[O-])O1.[Na+] (stereo not drawn)"
result = "Not soluble"

[[record]]
molecule = "CCCCCCCCCCC1OCC(COC(=O)NCC(O)CS(=O)(=O)[O-])O1.[Na+] (stereo not drawn)"
result = "Not soluble"

